Tested on: Key Broadleaf Weed and Crop Species
Assay: Post-emergent Test II herbicidal activity (Table 15)
Assay type: in vivo
Details: Brassica napus, post-emergence, 336 h, oilseed rape, canola (Brassica napus), 140 g ai/ha, 14 d, read-out: Visual Growth Reduction (%) 14 Days After Application, BRSNN
Listed below: pest or weed control at 140 g/ha values for each entry.

Recorded pest or weed control at 140 g/ha, per entry:
{"Query smiles": "Cn1ccc2cc(-c3nc(C(=O)O)c(Cl)c(N)c3F)ccc21", "Reading": "0 to 29%"}
{"Query smiles": "COC(=O)c1nc(-c2ccc(Cl)c3ccoc23)cc(N)c1Cl", "Reading": "75 to 84%"}
{"Query smiles": "COC(=O)c1nc(-c2ccc3scnc3c2)c(F)c(N)c1Cl", "Reading": "95 to 100%"}
{"Query smiles": "Nc1c(F)c(-c2ccc3ccsc3c2)nc(C(=O)O)c1Cl", "Reading": "60 to 74%"}
{"Query smiles": "COC(=O)c1nc(-c2ccc3cc[nH]c3c2F)c(Cl)c(N)c1Cl", "Reading": "0 to 29%"}

query: Supply pest or weed control at 140 g/ha value. Item: Cc1c(-c2ccc3sccc3c2)nc(C(=O)O)c(Cl)c1N
result: 60 to 74%

query: Supply pest or weed control at 140 g/ha value. Item: COC(=O)c1nc(-c2ccc(Cl)c3cc[nH]c23)cc(N)c1Cl
result: 0 to 29%

query: Supply pest or weed control at 140 g/ha value. Item: Nc1cc(-c2ccc3cc[nH]c3c2)nc(C(=O)O)c1Cl
result: 60 to 74%

query: Supply pest or weed control at 140 g/ha value. Item: Nc1cc(-c2ccc3ccsc3c2)nc(C(=O)O)c1Cl
result: 45 to 59%
